Hello, the source for this data is the NIST ThermoML archive (doi:10.1021/je600515j), in case you need it.

Assay: relative permittivity at zero frequency (dimensionless); xn = mol fraction of the nth substance listed
Details: 323.15 K; 101 kPa; Liquid; dielectric analyzer; x1 = 0.4
experimental endpoint: relative permittivity at zero frequency
Form: value (number only, do not type unit).

Take a look at these entries with their results.
molecule | reported measurement
CC(C)(N)CO [2-amino-2-methylpropan-1-ol] + O | 31.15
CN(CCO)CCO [N-methyldiethanolamine] + O | 30.37
OCCNCCO [diethanolamine] + O | 34.68

INPUT: Query relative permittivity at zero frequency for CC(O)CNCC(C)O (stereo not given) [N-(2-hydroxypropyl)-2-hydroxy-1-propanamine] + O
OUTPUT: 22.52

INPUT: Please give the documented relative permittivity at zero frequency of OCCN(CCO)CCO [triethanolamine] + O
OUTPUT: 32.73
